target: Mu-type opioid receptor (Mus musculus, UniProt P42866); experiment: Displacement of [3H]DAMGO from mu opioid receptor in mouse whole brain […] membrane
Sequence (P42866 whole entry): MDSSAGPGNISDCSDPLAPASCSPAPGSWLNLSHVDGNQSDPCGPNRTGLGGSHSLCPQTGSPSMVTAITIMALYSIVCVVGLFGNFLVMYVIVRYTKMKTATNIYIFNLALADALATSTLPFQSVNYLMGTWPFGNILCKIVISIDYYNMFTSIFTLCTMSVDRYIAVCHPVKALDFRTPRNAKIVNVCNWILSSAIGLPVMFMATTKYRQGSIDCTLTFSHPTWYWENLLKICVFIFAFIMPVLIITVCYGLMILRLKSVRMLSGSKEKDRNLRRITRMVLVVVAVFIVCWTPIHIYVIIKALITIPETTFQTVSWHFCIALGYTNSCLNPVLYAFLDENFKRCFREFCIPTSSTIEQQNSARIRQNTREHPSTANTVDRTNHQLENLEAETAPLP
PARAMETER_MEASURED: Ki (nM)

- CN1CC[C@@]23c4c5ccc(O)c4OCO[C@]46CC[C@@]2(O[C@H](C(=O)N4Cc2ccccc2)[C@H]63)[C@H]1C5: 23.3
- O=C1[C@H]2O[C@@]34CC[C@@]5(OCOc6c(O)ccc7c6[C@@]3(CCN(CC3CC3)[C@@H]4C7)[C@H]25)N1Cc1ccccc1: 3.14
- O=C1[C@H]2O[C@@]34CC[C@@]5(OCOc6c(O)ccc7c6[C@@]3(CCN(CC3CC3)[C@@H]4C7)[C@H]25)N1CCc1ccccc1: 1.75

###

Let's look at some molecules and their measured Emax.
biological target: Mu-type opioid receptor (Homo sapiens, UniProt P35372); assay: Agonist activity at human mu opioid receptor expressed in CHO cells assessed as [35S]-GTP[gammaS] binding relative to DAMDO; assay type: cell-based
Sequence (P35372 whole entry): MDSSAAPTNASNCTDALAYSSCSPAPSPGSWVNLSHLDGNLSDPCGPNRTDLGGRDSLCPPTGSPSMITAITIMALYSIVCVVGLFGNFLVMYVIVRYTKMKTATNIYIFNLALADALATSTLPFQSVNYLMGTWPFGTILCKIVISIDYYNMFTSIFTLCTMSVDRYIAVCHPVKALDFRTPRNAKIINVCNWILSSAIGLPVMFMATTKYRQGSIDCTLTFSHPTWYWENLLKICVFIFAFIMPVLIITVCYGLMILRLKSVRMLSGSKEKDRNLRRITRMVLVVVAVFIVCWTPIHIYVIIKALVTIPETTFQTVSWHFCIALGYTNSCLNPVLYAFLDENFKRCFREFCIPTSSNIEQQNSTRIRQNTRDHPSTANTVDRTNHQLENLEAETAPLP
PARAMETER_MEASURED: Emax (%)

* O=C1[C@H]2O[C@@]34CC[C@@]5(OCOc6c(O)ccc7c6[C@@]3(CCN(CC3CC3)[C@@H]4C7)[C@H]25)N1CCc1ccccc1 | 19.7
* O=C1[C@H]2O[C@@]34CC[C@@]5(OCOc6c(O)ccc7c6[C@@]3(CCN(CC3CC3)[C@@H]4C7)[C@H]25)N1c1ccccc1 | 25.6
* O=C1[C@H]2O[C@@]34CC[C@@]5(OCOc6c(O)ccc7c6[C@@]3(CCN(CCc3ccccc3)[C@@H]4C7)[C@H]25)N1Cc1ccccc1 | 83
* C=CCN1CC[C@@]23c4c5ccc(O)c4OCO[C@]46CC[C@@]2(O[C@H](C(=O)N4Cc2ccccc2)[C@H]63)[C@H]1C5 | 5.4

###

Measured Emax values are reported for all entries that follow.
biological target: Kappa-type opioid receptor (Homo sapiens, UniProt P41145); experiment: Agonist activity at human kappa opioid receptor expressed in CHO cells assessed as [35S]-GTP[gammaS] binding relative to U69593; assay type: functional, cell-based
Sequence (P41145 whole entry): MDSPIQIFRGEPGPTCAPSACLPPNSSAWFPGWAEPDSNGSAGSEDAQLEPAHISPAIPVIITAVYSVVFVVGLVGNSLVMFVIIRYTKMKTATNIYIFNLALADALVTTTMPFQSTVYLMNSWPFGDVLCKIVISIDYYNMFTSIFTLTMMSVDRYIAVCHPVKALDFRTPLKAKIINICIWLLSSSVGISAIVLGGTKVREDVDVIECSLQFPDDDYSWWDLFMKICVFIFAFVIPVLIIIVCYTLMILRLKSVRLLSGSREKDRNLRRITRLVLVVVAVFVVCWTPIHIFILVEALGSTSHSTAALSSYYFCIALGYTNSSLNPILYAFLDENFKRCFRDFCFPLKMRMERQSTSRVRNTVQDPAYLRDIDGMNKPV
PARAMETER_MEASURED: Emax (%)

* O=C1[C@H]2O[C@@]34CC[C@@]5(OCOc6c(O)ccc7c6[C@@]3(CCN(CC3CC3)[C@@H]4C7)[C@H]25)N1Cc1ccccc1 | 69.1
* O=C1[C@H]2O[C@@]34CC[C@@]5(OCOc6c(O)ccc7c6[C@@]3(CCN(CC3CC3)[C@@H]4C7)[C@H]25)N1c1ccccc1 | 42.9
* CN1CC[C@@]23c4c5ccc(O)c4OCO[C@]46CC[C@@]2(O[C@H](C(=O)N4Cc2ccccc2)[C@H]63)[C@H]1C5 | 83.6
* O=C1[C@H]2O[C@@]34CC[C@@]5(OCOc6c(O)ccc7c6[C@@]3(CCN(CC3CC3)[C@@H]4C7)[C@H]25)N1CCc1ccccc1 | 51.2
* C=CCN1CC[C@@]23c4c5ccc(O)c4OCO[C@]46CC[C@@]2(O[C@H](C(=O)N4Cc2ccccc2)[C@H]63)[C@H]1C5 | 74
* CC(C)CN1CC[C@@]23c4c5ccc(O)c4OCO[C@]46CC[C@@]2(O[C@H](C(=O)N4Cc2ccccc2)[C@H]63)[C@H]1C5 | 65.6

###

Parameter: Ki. Scope: all listed entries.
biological target: Delta-type opioid receptor (Mus musculus); assay: Displacement of [3H]DPDPE from delta opioid receptor in mouse whole brain […] membrane; format: tissue-based
Sequence (P32300 whole entry): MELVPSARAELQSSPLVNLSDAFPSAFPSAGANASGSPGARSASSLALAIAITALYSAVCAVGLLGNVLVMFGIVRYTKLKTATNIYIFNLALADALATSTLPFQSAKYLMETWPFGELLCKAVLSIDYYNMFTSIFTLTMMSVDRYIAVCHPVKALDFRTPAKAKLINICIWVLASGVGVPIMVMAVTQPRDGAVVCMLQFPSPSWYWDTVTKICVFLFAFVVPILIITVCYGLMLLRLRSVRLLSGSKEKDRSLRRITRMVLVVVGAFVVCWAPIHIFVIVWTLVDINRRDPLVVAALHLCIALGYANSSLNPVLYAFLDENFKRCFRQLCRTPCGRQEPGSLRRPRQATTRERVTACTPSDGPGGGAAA
PARAMETER_MEASURED: Ki (nM)

- COc1ccc2c(c1O)[C@]13CCN(CC4CC4)[C@H](C2)[C@]12CC[C@]1(O)[C@H]3[C@H](O2)C(=O)N1Cc1ccccc1: 175
- CC(C)CN1CC[C@@]23c4c5ccc(O)c4OCO[C@]46CC[C@@]2(O[C@H](C(=O)N4Cc2ccccc2)[C@H]63)[C@H]1C5: 7
- O=C1[C@H]2O[C@@]34CC[C@@]5(OCOc6c(O)ccc7c6[C@@]3(CCN(CC3CC3)[C@@H]4C7)[C@H]25)N1Cc1ccccc1: 0.313
- O=C1[C@H]2O[C@@]34CC[C@@]5(OCOc6c(O)ccc7c6[C@@]3(CCN(CC3CC3)[C@@H]4C7)[C@H]25)N1c1ccccc1: 0.534
- C=CCN1CC[C@@]23c4c5ccc(O)c4OCO[C@]46CC[C@@]2(O[C@H](C(=O)N4Cc2ccccc2)[C@H]63)[C@H]1C5: 1.23

###

target: UniProt P41145; assay: Agonist activity at human kappa opioid receptor expressed in HEK293 cells by CellKey method relative to (-)U50488H; type: cell-based
PARAMETER_MEASURED: Emax (%)

- CN1CC[C@@]23c4c5ccc(O)c4OCO[C@]46CC[C@@]2(O[C@H](C(=O)N4Cc2ccccc2)[C@H]63)[C@H]1C5: 79.2
- O=C1[C@H]2O[C@@]34CC[C@@]5(OCOc6c(O)ccc7c6[C@@]3(CCN(CCc3ccccc3)[C@@H]4C7)[C@H]25)N1Cc1ccccc1: 22.6
- C=CCN1C[C@H](C)N([C@H](c2ccc(C(=O)N(CC)CC)cc2)c2cccc(OC)c2)C[C@H]1C: 5.9
- O=C1[C@H]2O[C@@]34CC[C@@]5(OCOc6c(O)ccc7c6[C@@]3(CCN(CC3CC3)[C@@H]4C7)[C@H]25)N1Cc1ccccc1: 50.5
- O=C1[C@H]2O[C@@]34CC[C@@]5(OCOc6c(O)ccc7c6[C@@]3(CCN(CC3CC3)[C@@H]4C7)[C@H]25)N1c1ccccc1: 80.4
- O=C1[C@H]2O[C@@]34CC[C@@]5(OCOc6c(O)ccc7c6[C@@]3(CCN(CC3CC3)[C@@H]4C7)[C@H]25)N1CCc1ccccc1: 75.8
- CC(C)CN1CC[C@@]23c4c5ccc(O)c4OCO[C@]46CC[C@@]2(O[C@H](C(=O)N4Cc2ccccc2)[C@H]63)[C@H]1C5: 57.9

###

biological target: Mu-type opioid receptor (Homo sapiens); assay: Agonist activity at human mu opioid receptor expressed in CHO cells assessed as [35S]-GTP[gammaS] binding relative to DAMDO; format: cell-based
Recorded measurements of Emax, one per entry
PARAMETER_MEASURED: Emax (%)

• CC(C)CN1CC[C@@]23c4c5ccc(O)c4OCO[C@]46CC[C@@]2(O[C@H](C(=O)N4Cc2ccccc2)[C@H]63)[C@H]1C5 = 8.4
• O=C1[C@H]2O[C@@]34CC[C@@]5(OCOc6c(O)ccc7c6[C@@]3(CCN(CC3CC3)[C@@H]4C7)[C@H]25)N1Cc1ccccc1 = 13.7
• CN1CC[C@@]23c4c5ccc(O)c4OCO[C@]46CC[C@@]2(O[C@H](C(=O)N4Cc2ccccc2)[C@H]63)[C@H]1C5 = 110

###

log10 of EC50 values for the molecules below.
target: Kappa-type opioid receptor (Homo sapiens); assay: Agonist activity at human kappa opioid receptor expressed in CHO cells assessed as [35S]-GTP[gammaS] binding; type: functional, cell-based
PARAMETER_MEASURED: log10 of EC50 (log10 of the value in nM)

• O=C1[C@H]2O[C@@]34CC[C@@]5(OCOc6c(O)ccc7c6[C@@]3(CCN(CC3CC3)[C@@H]4C7)[C@H]25)N1CCc1ccccc1 = 0.59
• O=C1[C@H]2O[C@@]34CC[C@@]5(OCOc6c(O)ccc7c6[C@@]3(CCN(CC3CC3)[C@@H]4C7)[C@H]25)N1c1ccccc1 = 0.81
• CC(C)CN1CC[C@@]23c4c5ccc(O)c4OCO[C@]46CC[C@@]2(O[C@H](C(=O)N4Cc2ccccc2)[C@H]63)[C@H]1C5 = 2.88
• CN1CC[C@@]23c4c5ccc(O)c4OCO[C@]46CC[C@@]2(O[C@H](C(=O)N4Cc2ccccc2)[C@H]63)[C@H]1C5 = 2.68
• C=CCN1CC[C@@]23c4c5ccc(O)c4OCO[C@]46CC[C@@]2(O[C@H](C(=O)N4Cc2ccccc2)[C@H]63)[C@H]1C5 = 2.36
• O=C1[C@H]2O[C@@]34CC[C@@]5(OCOc6c(O)ccc7c6[C@@]3(CCN(CC3CC3)[C@@H]4C7)[C@H]25)N1Cc1ccccc1 = 1.91

###

# Ratio Ki per entry
species on record: Mus musculus; assay: Selectivity ratio of Ki for mouse mu opioid receptor to Ki for mouse delta opioid receptor
PARAMETER_MEASURED: Ratio Ki

- O=C1[C@H]2O[C@@]34CC[C@@]5(OCOc6c(O)ccc7c6[C@@]3(CCN(CC3CC3)[C@@H]4C7)[C@H]25)N1CCc1ccccc1: 1.5
- CN1CC[C@@]23c4c5ccc(O)c4OCO[C@]46CC[C@@]2(O[C@H](C(=O)N4Cc2ccccc2)[C@H]63)[C@H]1C5: 12
- O=C1[C@H]2O[C@@]34CC[C@@]5(OCOc6c(O)ccc7c6[C@@]3(CCN(CCc3ccccc3)[C@@H]4C7)[C@H]25)N1Cc1ccccc1: 17.7
- O=C1[C@H]2O[C@@]34CC[C@@]5(OCOc6c(O)ccc7c6[C@@]3(CCN(CC3CC3)[C@@H]4C7)[C@H]25)N1Cc1ccccc1: 10
- O=C1[C@H]2O[C@@]34CC[C@@]5(OCOc6c(O)ccc7c6[C@@]3(CCN(CC3CC3)[C@@H]4C7)[C@H]25)N1c1ccccc1: 8.6
- C=CCN1CC[C@@]23c4c5ccc(O)c4OCO[C@]46CC[C@@]2(O[C@H](C(=O)N4Cc2ccccc2)[C@H]63)[C@H]1C5: 55.8
- COc1ccc2c(c1O)[C@]13CCN(CC4CC4)[C@H](C2)[C@]12CC[C@]1(O)[C@H]3[C@H](O2)C(=O)N1Cc1ccccc1: 0.27
- CC(C)CN1CC[C@@]23c4c5ccc(O)c4OCO[C@]46CC[C@@]2(O[C@H](C(=O)N4Cc2ccccc2)[C@H]63)[C@H]1C5: 26.6
